Measured pest or weed control at 62.5 g/ha accompanies every entry in the list below.
- System: ivy-leaved morning glory (Ipomoea hederacea)
- TEST_METHOD_NOTES: Test G Post-Emergence Protocol
- Format: in vivo
- ASSAY_CONTEXT: Ipomoea, post-emergence, 312 h, 62.5 g ai/ha, evaluated after 13 days, read-out: Morningglory, Ivy-leaved damage rating (100=total damage to plant; 0=no damage to plant)
- Excerpt: Seeds of corn (Zea mays), giant foxtail (Setaria faberi), barnyardgrass (Echinochloa crus-galli), ivy-leaved morning glory (Ipomoea hederacea), redroot pigweed (Amaranthus retroflexus) and velvetleaf (Abutilon theophrasti) were sown in standard soil in pots. […]
MEASUREMENT_LABEL: pest or weed control at 62.5 g/ha (%)

>>> print(df.to_string())
                                   molecule                             tested_target                  measurement_label  reported_value
0  CN1C[C@@H](c2cnc(Cl)c(Cl)c2)[C@H](C(=O)Nc2cccc(F)c2F)C1=O (racemic)  ivy-leaved morning glory (Ipomoea hederacea)  pest or weed control at 62.5 g/ha               0
1  CN1C[C@@H](c2ccc(C(F)(F)F)cc2)[C@H](C(=O)Nc2ccno2)C1=O (racemic)  ivy-leaved morning glory (Ipomoea hederacea)  pest or weed control at 62.5 g/ha               0
2  CN1C[C@H](c2cccc(C(F)F)c2)[C@@H](C(=O)Nc2cccc(F)c2F)C1=O (racemic)  ivy-leaved morning glory (Ipomoea hederacea)  pest or weed control at 62.5 g/ha              20
3  Cc1c(C#N)cccc1NC(=O)[C@H]1C(=O)N(C)C[C@@H]1c1ccc(C(F)(F)F)cc1 (racemic)  ivy-leaved morning glory (Ipomoea hederacea)  pest or weed control at 62.5 g/ha              10
